// TGI lookup, one value per entry
Test system: A549 NSCLC
Assay: NCI tumour cell line growth inhibition, 48 h

Below: 6 compounds and their reported TGI.
# compound, TGI
rows = [
    ("Oc1ccc(-c2cn3cc(C(F)(F)F)ccc3n2)cc1", "> 100 µM"),
    ("N#CCCN(CCC#N)c1ccc(/C=C2\\N=C(c3cc([N+](=O)[O-])ccc3Cl)N(NC(=O)CC(=O)Nc3ccccc3Cl)C2=O)cc1", "> 100 µM"),
    ("CC(=O)[O-].[O-]c1c(Cl)cc(Cl)cc1/C=N/Nc1ccccn1.[Zn+2]", "> 100 µM"),
    ("CC1=NN(C(=O)c2ccc(Cl)cc2)C(=O)/C1=C/c1ccco1", "> 100 µM"),
    ("COC(=O)C1C(C(=O)OC)C1(Br)CBr (stereo not given)", "> 100 µM"),
    ("CN(C)C(=O)C1CCN(Cc2c[nH]c3ccccc23)CC1", "> 100 µM"),
]

*Q* I have this compound here, O=c1nc2sc3ccc4ccccc4c3n2[nH]c1=O , and I need its recorded TGI.
*A* > 100 µM

*Q* What TGI value was documented for this compound, C=C1CCC2C3(C)COC(c4ccc(Cl)cc4)OC3CCC2(C)C1/C=C/C1=CCOC1=O (stereo not given) ?
*A* 32.5 µM

*Q* Any idea what TGI was measured for COCOCC[C@@H]1CC=CC(NC(=O)OCc2ccccc2)C1/C=C/C(=O)CCC1OCCO1 (stereo not given in full) ?
*A* > 100 µM

*Q* GET /values?readout=TGI&item= CC(O)CN1c2ccccc2Sc2ccc(Cl)cc21 (stereo not given)
*A* > 10 µM

---

Target or system MDA-MB-231 breast; recorded quantity GI50.

# annotated cases, reported GI50 shown
# molecule, GI50
measured = [
    ("O=C(Nc1ccc2c(c1)OCO2)C(=O)c1c[nH]c2cc(F)ccc12", "2.12 µM"),
    ("O=C(NN1C(=O)CSC12CCCC2)C(O)c1ccccc1 (stereo not drawn)", "> 100 µM"),
    ("CCCN1C(=O)/C(=C/c2ccc(O)cc2)SC1=Nc1ccc(OC)cc1", "14.1 µM"),
    ("CC[C@@H](C)Nc1cc(C(=O)NC2CC3CCC(C2)N3c2ccc(C(=O)C3CC3)cn2)c(C)cc1C(N)=O (stereo partly drawn)", "0.0538 µM"),
    ("N#Cc1c(N)nc(N2CCSCC2)c(C#N)c1-c1ccc(O)cc1", "12.4 µM"),
]

*Q* Provide value of GI50 for this record tested with MDA-MB-231 breast: COc1ccc2c(c1)N(CCO)C1=C(C(=O)OC1)C2c1ccccc1 (stereo not drawn)
*A* 5.99 µM

---

System: RXF-631 renal
Experiment: NCI tumour cell line growth inhibition, 48 h
measurement kind: TGI

Examples with their reported TGI follow.
# compound, TGI
rows = [
    ("CC(=N)N(C)O", "> 100 µM"),
    ("Cn1nc(-c2ccccc2)c(C(=O)/C=C/c2ccc(F)cc2)c(N2CCOCC2)c1=O", "86.6 µM"),
    ("CC(=O)N/C(=C\\c1ccc(/C=C(\\NC(C)=O)C2=NC3C(=O)c4ccccc4C(=O)C3N2)cc1)C1=NC2C(=O)c3ccccc3C(=O)C2N1 (stereo not given)", "> 100 µM"),
    ("C#CCN(N=O)C(=O)NCCCC(NC(C)=O)C(=O)NCc1ccccc1 (stereo not given)", "> 100 µM"),
]

Would you kindly look at the next entry?
*Q* Sample OC1CCC[C@@H]1Sc1ccccc1 (stereo not given in full) — what was its TGI?
*A* > 100 µM

---

System: HL-60(TB) leukemia
Assay: NCI tumour cell line growth inhibition, 48 h; in the data active = GI50 below about 0.43 µM; inactive = the rest
Where a SMILES comes first, the peptide text is derived from it. [ ]: non-standard residue; d: D form. 2Nal = N[CH](Cc1ccc2ccccc2c1)C(=O)O
In this exercise, the only acceptable responses are active, inactive

Field: example entries. Status: answers known.
# molecule, label value
data = [
    ("CC(C)(C)NC/C(=C\\c1ccccc1)C(=O)c1ccccc1", "inactive"),
    ("CN1CCN(Cc2ccc(NC(=O)c3cncc(C#Cc4cnn5ccccc45)c3)cc2C(F)(F)F)CC1", "active"),
    ("NC(=Nc1nc(-c2ccccn2)cc2ccccc12)c1ccccn1", "active"),
]

*Q* Entry CSc1ccc(C2=NN(C(C)=O)C(c3ccc(F)cc3)C2)cc1 (stereo not drawn) : call = ?
*A* inactive

*Q* Which outcome was entered for the molecule CC[C@@H](C)Nc1cc(C(=O)NC2CC3CCC(C2)N3c2ccc(C(=O)C3CC3)cn2)c(C)cc1C(N)=O (stereo partly drawn) in this test?
*A* active

*Q* # fetch the recorded call for O=S(=O)(Nc1ccc2ccccc2c1)c1ccc(-c2cnc(C3CC3)o2)cc1 here
*A* active

*Q* Dear colleague, could you share the recorded outcome for COc1ccc2c(c1)C(=O)c1c-2n(CCCN)c(=O)c2cc(OC)c(OC)cc12 when you have a moment?
*A* active

*Q* GET /call?item= CC(C)C(NC(=O)C(CCCCN)NC(=O)C(Cc1c[nH]c2ccccc12)NC(=O)C(Cc1ccc(O)cc1)NC(=O)C(CS)NC(=O)C(N)Cc1ccc2ccccc2c1)C(=O)NC(CS)C(=O)NC(C(N)=O)C(C)O (stereo not drawn) (H-[2Nal]CYWKVCT-NH2; configuration not given here) returns the recorded outcome of this test.
*A* inactive

---

Tested on: DU-145 prostate
Experiment: NCI tumour cell line growth inhibition, 48 h
Form field: TGI (one value per entry).

# compound, TGI
rows = [
    ("O=C1C(Cl)=C(N2CCN(c3ccccn3)CC2)C(=O)c2ncccc21", "24.1 µM"),
    ("C1CCN2CC3CCCN4CCCC(C2C1)C34 (stereo unspecified)", "> 100 µM"),
    ("O=C(Nn1cnn2c(=O)c3ccccc3nc2c1=O)c1ccccc1", "> 100 µM"),
    ("CC1CCc2c(c(CC3CC(=O)NC(=O)C3)nn2-c2ccccc2)C1 (stereo unspecified)", "> 100 µM"),
    ("CCOC(=O)NC(=S)c1ccc(O)c2ccccc12", "> 100 µM"),
    ("COc1cc(/C=C\\c2cc(/C=C\\c3ccc(O)c(OC)c3)n(C(=O)CNc3ccc(Cl)cc3)n2)ccc1O", "12.3 µM"),
    ("COC(=O)c1c(C(=O)OC)c2c3ccccc3n(C)c2c2c1c1ccccc1n2C", "> 100 µM"),
    ("Cc1ccc(C)n1-n1c(-c2ccccc2)n[nH]c1=O", "> 100 µM"),
]

*Q* # TGI lookup, item OC(c1ccccc1)C(F)(F)c1nc2ccccc2o1 (stereo unspecified)
*A* > 100 µM

*Q* Requested read-out: TGI. Entry: Oc1cc(CN2COc3ccccc32)c(O)cc1CNC1CCCCC1
*A* > 100 µM

*Q* Look up TGI for this compound: CN(C)c1ccc(C(=NN)c2ccc(N(C)C)cc2)cc1
*A* > 35 µM

*Q* Param item = COc1ccc(-c2nc(-c3cnccn3)n(COCCO)n2)cc1 ; retrieve measured TGI.
*A* > 100 µM

---

Each entry below carries its reported TGI.
System: IGROV1 ovarian
Assay: NCI tumour cell line growth inhibition, 48 h

# example entries with known answers
# compound, TGI
data = [
    ("CN(C)CCC1(C2=CCCC2)CC/C(=C\\c2ccccc2Cl)C1=O (configuration not stated)", "37.5 µM"),
    ("COc1ccc(/C=C2\\CC(C)CC3C2=NN(c2ccccc2)C3c2ccc(OC)c(OC)c2)cc1OC (configuration not stated)", "> 100 µM"),
    ("COCCOCCOCCOc1ccc(C(C#N)N(CCc2ccccc2)C(=O)c2cc(C(=O)N(CCc3ccccc3)C(C#N)c3ccc(OCCOCCOCCOC)cc3)cc(C(=O)N(CCc3ccccc3)C(C#N)c3ccc(OCCOCCOCCOC)cc3)c2)cc1 (configuration not stated)", "> 100 µM"),
]

*Q* Could you share which TGI value was measured for NNC(=O)N/N=C1\C(=O)N(c2nccs2)C(=O)C(=O)C1c1nc2ccccc2s1 (configuration not stated) ?
*A* > 100 µM

*Q* Report TGI for O=C(O)c1nccnc1C(=O)O please.
*A* > 100 µM

*Q* What measured TGI goes with Cc1ccc(NC(=O)CC/C(CC(=O)C(C)(C)C)=N\Nc2ccc([N+](=O)[O-])cc2[N+](=O)[O-])cc1C ?
*A* > 100 µM

*Q* Need TGI of CC[C@]12C=CCN3CC[C@@]4(c5ccc(OC)cc5N(C)[C@H]4[C@@](O)(C(=O)OC)[C@@H]1OC(=O)CCC(=O)N[C@H](Cc1c[nH]c4ccccc14)C(=O)OC)[C@@H]32 , thanks.
*A* 24.1 µM

*Q* For O=C(O)Cn1c2c(c3c(O)cccc31)C(=O)c1ccccc1-2 , what is its reported TGI?
*A* > 100 µM

*Q* What value of measured TGI is listed for O=C(O)c1ccc(Nc2nc3cc(C(F)(F)F)ccc3nc2-c2ccccc2)cc1 ?
*A* 35.9 µM

*Q* Report TGI for Nc1ccccc1N=Nc1c(S(=O)(=O)O)cc2cc(S(=O)(=O)O)cc(O)c2c1O please.
*A* > 100 µM

*Q* I would be grateful if you could share the reported TGI for COC(=O)C(=O)C(C(=O)C(=O)Nc1ccc(C)cc1)c1nc2ccc(C(=O)c3ccccc3)cc2[nH]c1=O (configuration not stated) .
*A* > 100 µM

*Q* // TGI lookup, key: O=C1/C(=C/c2cccs2)NC(=S)N1CN1CCCC(CO)C1 (configuration not stated)
*A* > 100 µM

*Q* If you can, please state the reported TGI value of CCCCCCCCCOC(=S)NCCCCC .
*A* > 100 µM

*Q* Recorded TGI for O=C1NC(S(=O)(=O)O)=NNC12c1ccccc1-c1ccccc12 , please?
*A* > 10 µM

*Q* // query TGI value for entry COC1(CC[C@H](C)COC2OC(CO)C(O)C(O)C2O)O[C@H]2C[C@H]3[C@@H]4CC=C5C[C@@H](OC6OC(CO)C(O)C(OC7OC(CO)C(O)C(O)C7O)C6OC6OC(C)C(O)C(O)C6O)CC[C@]5(C)[C@H]4CC[C@]3(C)[C@H]2[C@@H]1C (some centres not stated)
*A* 11.8 µM

*Q* # query: TGI of entry [O-][n+]1c(-c2ccccc2)c2nc3ccccc3nc2c2ccccc21
*A* > 100 µM

*Q* Which value of TGI has been reported for CCN(CC)CCNc1ccc2nnn3c4ccccc4c(=O)c1c23 in the records?
*A* 58.8 µM
